Target: PTHR-delNt (human) (UniProt Q03431)
Sequence (Q03431 185-593, form in doubt): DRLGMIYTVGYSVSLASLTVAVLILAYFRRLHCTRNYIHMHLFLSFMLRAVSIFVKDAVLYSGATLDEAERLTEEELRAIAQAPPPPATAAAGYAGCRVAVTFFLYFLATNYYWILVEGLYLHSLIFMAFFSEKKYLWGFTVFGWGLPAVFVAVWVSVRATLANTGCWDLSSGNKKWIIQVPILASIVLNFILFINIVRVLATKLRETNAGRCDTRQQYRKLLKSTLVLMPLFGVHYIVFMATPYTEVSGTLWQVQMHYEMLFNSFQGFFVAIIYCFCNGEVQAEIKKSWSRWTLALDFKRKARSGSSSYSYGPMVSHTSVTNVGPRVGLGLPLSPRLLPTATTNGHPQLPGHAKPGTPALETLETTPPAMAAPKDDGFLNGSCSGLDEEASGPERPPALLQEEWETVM
Test: competition binding, COS-7 membranes, 125I-[Aib1,3,M]PTH(1-15) tracer
pIC50: −log10 of the molar value. Where no end group is shown, it is not given here. [ ]: non-standard residue; d: D form. Apa = (S)-2-amino-4[(2-amino)pyrimidinyl]methylalanine
Catalogue of pIC50 readings, one per entry.

Binder | pIC50
SVSEIQLMHNLGKHLNAMERVEWLRKKLQDV-NH2 [PTH(1-31)NH2 Ser^17→Ala] | 5.34
AVSEIQLMHNLGKHLNSMRRVEWLRKKLQDV-NH2 (also called [Ala^1,Arg^19]PTH(1-31)NH2; [Ala^1,Arg^19]PTH(1-31)) [[Ala^1,Arg^19]hPTH(1-31)NH2] | 6.40
SVSEIQLMHNLGKHLNSMRRVEWLRKKLQDV-NH2 [PTH(1-31)NH2 Glu^19→Arg] | 5.91
AVSEIQLMHNLGKHLNSMRRVEELRKKLQDV-NH2 [[Ala^1,Arg^19]hPTH(1-31)NH2 Trp^23→Glu] | 6.36
SVSEIQLMHNLGKHLNSMERVEWLRKALQDV-NH2 [PTH(1-31)NH2 Lys^27→Ala] | 5.14
SVSEIQLMHNLGKHLNSMERVEWLRKKAQDV-NH2 [PTH(1-31)NH2 Leu^28→Ala] | 5.46
SVSEIQLMHNLGKHLNSMEXVEWLRKKLQDV (citrulline (Cit) at 20; C-terminal amide) [PTH(1-31)NH2 Arg^20→Cit] | 4.97
SVSEIQLMHNLGKHLNSMERAEWLRKKLQDV-NH2 [PTH(1-31)NH2 Val^21→Ala] | 5.25
SVSEIQLMHNLGKHLNSMARVAWLRKKLQDV-NH2 [PTH(1-31)NH2 Glu^19,22→Ala,Ala] | 6.21
SVSEIQLMHNLGKHLNSME[Apa]VEWLRKKLQDV-NH2 [PTH(1-31)NH2 Arg^20→Apa] | 5.24
SVSEIQLMHNLGKHLNSMARVEWLRKKLQDV-NH2 [PTH(1-31)NH2 Glu^19→Ala] | 5.53
SVSEIQLMHNLGKHLNSMEQVEWLRKKLQDV-NH2 [PTH(1-31)NH2 Arg^20→Gln] | 4.99
SVSEIQLMHNLGKHLNSMERVEWLRKKLADV-NH2 [PTH(1-31)NH2 Gln^29→Ala] | 5.71
AVSEIQLMHNLGKHLNSMRREEWLRKKLQDV-NH2 [[Ala^1,Arg^19]hPTH(1-31)NH2 Val^21→Glu] | 5.79
SVSEIQLMHNLGKHLNSMERVAWLRKKLQDV-NH2 [PTH(1-31)NH2 Glu^22→Ala] | 5.23
SVSEIQLMHNLGKHLNSMRRVAWLRKKLQDV-NH2 [PTH(1-31)NH2 Glu^19,22→Arg,Ala] | 6.44
SVSEIQLMHNLGKHLNSMEEVEWLRKKLQDV-NH2 [PTH(1-31)NH2 Arg^20→Glu] | 4.83
AVSEIQLMHNLGKHLNSMRRVEWLREKLQDV-NH2 [[Ala^1,Arg^19]hPTH(1-31)NH2 Lys^26→Glu] | 6.08
SVSEIQLMHNLGKHLNSMERVEWLRAKLQDV-NH2 [PTH(1-31)NH2 Lys^26→Ala] | 5.21
AVSEIQLMHNLGKHLNSMRRVEWERKKLQDV-NH2 [[Ala^1,Arg^19]hPTH(1-31)NH2 Leu^24→Glu] | 5.98
SVSEIQLMHNLGKHLNSMEAVEWLRKKLQDV-NH2 [PTH(1-31)NH2 Arg^20→Ala] | 4.71
SVSEIQLMHNLGKHLNSMERVEWLAKKLQDV-NH2 [PTH(1-31)NH2 Arg^25→Ala] | 5.14
SVSEIQLMHNLGKHLNSMERVEWARKKLQDV-NH2 [PTH(1-31)NH2 Leu^24→Ala] | 5.06
SVSEIQLMHNLGKHLNSMEKVEWLRKKLQDV-NH2 [PTH(1-31)NH2 Arg^20→Lys] | 5.15
SVSEIQLMHNLGKHLNSMERVEALRKKLQDV-NH2 [PTH(1-31)NH2 Trp^23→Ala] | 5.13
